Listed here: items and their measured IC50.
- System: MCF-7 breast cancer cells
- ASSAY PROCEDURE: alamarBlue cell viability assay
- Format: cell-based
- TEST CONTEXT: Homo sapiens, MCF7; MCF-7; 72 h
Report field: quantity (unit follows the number).

What value of measured IC50 is listed for COc1ccc(/C=C/C(c2cc(OC)c(OC)c(OC)c2)n2cncn2)cc1O (centres unmarked) [Compound 22b] ?
385 nM

Given the compound COc1ccc(/C=C/C(=O)c2cc(OC)c(OC)c(OC)c2)cc1O [Compound 20b, reference compound] , what is its reported IC50?
67 nM

---

- Tested on: SN12C (Renal Cancer)
- ASSAY PROCEDURE: NCI60 screen (SRB)
- Assay type: cell-based, human
- TEST CONTEXT: one dose 10 µM, 48 h
Labelling field: enter satisfied if recorded growth percent is less than 80%. Enter not satisfied if it equals or exceeds that cut-off.

Examples with answers:
Item "COc1cc(/C=C/C(/C=C/c2cc(OC)c(OC)c(OC)c2)n2ccnc2)cc(OC)c1OC" : growth percent beneath 80%, strictly?
not satisfied

# check: growth percent < 80% for COc1ccc(/C=C/C(c2cc(OC)c(OC)c(OC)c2)n2cncn2)cc1O (centres unmarked) [Compound 22b]
satisfied

Answer whether the molecule COc1ccc(/C=C/C(c2cc(OC)c(OC)c(OC)c2)n2ccnc2)cc1O (centres unmarked) [Compound 23b] has growth percent strictly less than 80%
satisfied

Check if growth percent falls below 80% for COc1ccc(/C=C/C(c2cc(OC)c(OC)c(OC)c2)n2cncn2)cc1 (centres unmarked) [Compound 22a] .
satisfied

Continuing:
Please indicate whether the reported growth percent of COc1ccc(C2CC(n3ccnc3)c3cc(OC)c(OC)c(OC)c32)cc1O (centres unmarked) [Compound 27a] is strictly below 80%.
not satisfied

---

- ASSAY PROCEDURE: Cytotoxicity in MCF-10A cells (alamarBlue)
- Assay type: cell-based, human
- TEST CONTEXT: human, MCF-10A non-tumorigenic mammary epithelial cells, 10 μM, 24 h, read-out: viable cells
READOUT: viability at 24 h, 10 µM (%)
Supply the numeric figure in %, leaving out any unit text.

Item under review: COc1ccc(/C=C/C(c2cc(OC)c(OC)c(OC)c2)n2cncn2)cc1 (stereo not shown) [Compound 22a] . Reported viability at 24 h, 10 µM?
78

---

- ASSAY PROCEDURE: Cytotoxicity in MCF-10A cells (alamarBlue)
- Format: cell-based, human
- TEST CONTEXT: human, MCF-10A non-tumorigenic mammary epithelial cells, 1 μM, 48 h, read-out: viable cells
Reported viability at 48 h, 1 µM by item:

Fill in the blank: the reported viability at 48 h, 1 µM of COc1ccc(/C=C/C(c2cc(OC)c(OC)c(OC)c2)n2cncn2)cc1 (centres unmarked) [Compound 22a] is ____.
> 80%

Query (molecule): COc1ccc(/C=C/C(c2cc(OC)c(OC)c(OC)c2)n2cncn2)cc1O (centres unmarked) [Compound 22b] ; field requested: viability at 48 h, 1 µM
> 80%

---

- Tested on: UACC-62 (Melanoma)
- ASSAY PROCEDURE: NCI60 screen (SRB)
- Type: cell-based, human
- TEST CONTEXT: one dose 10 µM, 48 h
# label = Y if growth percent < 40% else N

Please review the following examples before continuing.
Quick check: does COc1ccc(/C=C/C(c2cc(OC)c(OC)c(OC)c2)n2ccnc2)cc1O (centres unmarked) [Compound 23b] have growth percent under 40%?
Y

For this molecule, is growth percent lower than 40%? COc1ccc(/C=C/C(c2cc(OC)c(OC)c(OC)c2)n2cncn2)cc1O (centres unmarked) [Compound 22b]
Y

Strictly below 40%: is that where growth percent of COc1ccc(/C=C/C(c2cc(OC)c(OC)c(OC)c2)n2cncn2)cc1 (centres unmarked) [Compound 22a] sits?
Y

growth percent strictly < 40% for this molecule? COc1ccc(C2CC(n3ccnc3)c3cc(OC)c(OC)c(OC)c32)cc1O (centres unmarked) [Compound 27a]
N

Then there is this molecule:
Just wondering, is growth percent of COc1cc(/C=C/C(/C=C/c2cc(OC)c(OC)c(OC)c2)n2ccnc2)cc(OC)c1OC [Compound 30] below 40%?
N

---

Below is a list of entries, each paired with its recorded viability at 1 µM value.
- Test system: MCF-7 breast cancer cells
- ASSAY PROCEDURE: alamarBlue cell viability assay
- Format: cell-based
- TEST CONTEXT: Homo sapiens, MCF7; MCF-7; 1 μM; 72 h; read-out: viable cells
Write the number in % without appending the unit.

Take a look at these entries with their results.
Field request: viability at 1 µM | item: COc1ccc(/C=C/C(c2cc(OC)c(OC)c(OC)c2)n2cncn2)cc1O (stereo not drawn) [Compound 22b]
40

Return reported viability at 1 µM; argument: "COc1ccc(/C=C\c2cc(OC)c(OC)c(OC)c2)cc1O"
24

Which measured viability at 1 µM value corresponds to COc1ccc(/C=C/C(c2cc(OC)c(OC)c(OC)c2)n2cncn2)cc1 (stereo not drawn) [Compound 22a] ?
60

Consider the compound "COc1cc(/C=C/C(/C=C/c2cc(OC)c(OC)c(OC)c2)n2ccnc2)cc(OC)c1OC" and give its measured viability at 1 µM.
77

Sample C(=C\C(c1ccncc1)n1ccnc1)/c1c2ccccc2cc2ccccc12 (stereo not drawn) [Compound 33b] — what was its viability at 1 µM?
92

Recorded viability at 1 µM for COc1cc(/C=C/C(c2cc(OC)c(OC)c(OC)c2)n2cncn2)cc(OC)c1OC (stereo not drawn) [Compound 22c] , please?
70

Which viability at 1 µM is listed for COc1ccc(/C=C/C(c2cc(OC)c(OC)c(OC)c2)n2ccnc2)cc1O (stereo not drawn) [Compound 23b] ?
74

What value of measured viability at 1 µM is listed for COc1ccc(/C=C/C(c2cc(OC)c(OC)c(OC)c2)n2cncn2)cc1OC (stereo not drawn) [Compound 22d] ?
74

--- query ---
Dear colleague, I am looking for the recorded viability at 1 µM of the following compound: COc1ccc(C2CC(=O)c3cc(OC)c(OC)c(OC)c32)cc1O (stereo not drawn) [Compound 24a, reference compound]
35

---

- Test system: SK-OV-3 (Ovarian Cancer)
- ASSAY PROCEDURE: NCI60 screen (SRB)
- Type: cell-based, human
- TEST CONTEXT: one dose 10 µM, 48 h
growth percent values for the compounds below.
Entry rule: numbers only, all in %.

Before answering, review these 3 worked examples.
Reported growth percent for COc1ccc(/C=C/C(c2cc(OC)c(OC)c(OC)c2)n2cncn2)cc1 (centres unmarked) [Compound 22a] : what is it?
35.55

Endpoint output: growth percent of "COc1cc(/C=C/C(/C=C/c2cc(OC)c(OC)c(OC)c2)n2ccnc2)cc(OC)c1OC" . Value?
92.06

Give its growth percent value. Item: COc1ccc(C2CC(n3ccnc3)c3cc(OC)c(OC)c(OC)c32)cc1O (centres unmarked) [Compound 27a]
86.31

Further cases:
May I ask what growth percent has been recorded for COc1ccc(/C=C/C(c2cc(OC)c(OC)c(OC)c2)n2ccnc2)cc1O (centres unmarked) [Compound 23b] ?
33.54

Suppose we examine the compound COc1ccc(/C=C/C(c2cc(OC)c(OC)c(OC)c2)n2cncn2)cc1O (centres unmarked) [Compound 22b] ; what growth percent value has been reported?
12.67

---

- Test system: 786-0 (Renal Cancer)
- ASSAY PROCEDURE: NCI60 screen (SRB)
- Assay type: cell-based, human
- TEST CONTEXT: one dose 10 µM, 48 h
Measured growth percent, listed per entry.
The response must be a number in % with no trailing unit.

Here's what some known entries look like.
Can you share its growth percent? I mean this compound: COc1ccc(C2CC(n3ccnc3)c3cc(OC)c(OC)c(OC)c32)cc1O (centres unmarked) [Compound 27a]
91.67

Reported growth percent for "COc1cc(/C=C/C(/C=C/c2cc(OC)c(OC)c(OC)c2)n2ccnc2)cc(OC)c1OC" : what is it?
95.20

Which value of growth percent has been reported for COc1ccc(/C=C/C(c2cc(OC)c(OC)c(OC)c2)n2cncn2)cc1O (centres unmarked) [Compound 22b] in the records?
23.33

---
Could you tell me which growth percent is on file for COc1ccc(/C=C/C(c2cc(OC)c(OC)c(OC)c2)n2cncn2)cc1 (centres unmarked) [Compound 22a] ?
39.65

growth percent for COc1ccc(/C=C/C(c2cc(OC)c(OC)c(OC)c2)n2ccnc2)cc1O (centres unmarked) [Compound 23b] ?
34.04

---

- TARGET ENTITY: CYP1A1 (Homo sapiens, UniProt P04798)
- Sequence (P04798 whole entry): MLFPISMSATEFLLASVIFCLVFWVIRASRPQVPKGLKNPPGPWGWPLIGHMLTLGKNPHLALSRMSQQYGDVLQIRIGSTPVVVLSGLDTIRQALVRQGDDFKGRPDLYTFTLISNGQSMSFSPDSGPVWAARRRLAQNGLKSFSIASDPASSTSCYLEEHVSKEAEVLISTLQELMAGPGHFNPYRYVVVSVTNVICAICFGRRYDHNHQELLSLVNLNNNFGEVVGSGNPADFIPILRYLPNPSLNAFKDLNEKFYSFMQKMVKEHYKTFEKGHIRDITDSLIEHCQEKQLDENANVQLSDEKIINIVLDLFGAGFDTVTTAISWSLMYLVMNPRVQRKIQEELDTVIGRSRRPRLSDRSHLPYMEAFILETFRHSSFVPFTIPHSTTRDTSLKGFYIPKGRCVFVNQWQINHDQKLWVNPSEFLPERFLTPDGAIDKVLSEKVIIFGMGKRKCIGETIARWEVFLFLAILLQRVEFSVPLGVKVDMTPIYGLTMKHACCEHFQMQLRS
pIC50: −log10 of the molar value.
READOUT: pIC50

Form field: pIC50 recorded for COc1ccc(/C=C/C(c2cc(OC)c(OC)c(OC)c2)n2cncn2)cc1O (stereo not shown) [Compound 22b] with CYP1A1 (Homo sapiens, UniProt P04798) (enter value)
< 4.28
